- target_under_test: T1, zebrafish Tac3rb (tac3 receptor b, NKB receptor) (zebrafish)
- T1 chain: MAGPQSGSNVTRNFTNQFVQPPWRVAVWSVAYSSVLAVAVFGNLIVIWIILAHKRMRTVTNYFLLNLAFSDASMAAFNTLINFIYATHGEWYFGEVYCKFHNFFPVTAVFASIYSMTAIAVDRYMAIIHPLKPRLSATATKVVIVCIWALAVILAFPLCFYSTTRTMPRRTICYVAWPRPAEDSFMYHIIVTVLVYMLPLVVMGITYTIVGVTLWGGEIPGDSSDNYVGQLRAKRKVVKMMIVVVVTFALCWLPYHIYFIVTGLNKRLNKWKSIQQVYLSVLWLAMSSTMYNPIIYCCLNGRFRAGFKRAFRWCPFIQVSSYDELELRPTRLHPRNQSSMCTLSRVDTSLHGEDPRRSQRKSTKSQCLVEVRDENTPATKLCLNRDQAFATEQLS
- method: cell-based or functional assay
*1 amine or outer side, *2 acyl side, *3 side chain or, on linkers, in order; H or OH if unused. Where no end group is shown, it is not given here. [ ]: non-standard residue; d: D form. NMeF = CN[C@@H](Cc1ccccc1)C(=O)O; Suc = O=C(CCC(=O)[*:2])[*:1]
readout_name: EC50, CRE-Luc to follow PKA activation, transfected COS-7 cells (nM)

{"binder": "DMHDFFVGLM-NH2 [human NKB (neurokinin B)]", "measured_value": 8.12}
{"binder": "Suc-DF[NMeF]GLM-NH2 [Senktide (Succ-Asp-Phe-N(Me)Phe-Gly-Leu-Met-NH2)]", "measured_value": 20.1}
{"binder": "STGINREAHLPFRPNMNDIFVGLL-NH2 [Zebrafish Tac3b peptide, neurokinin Bb (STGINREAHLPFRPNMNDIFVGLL-NH2)]", "measured_value": 191}

(A) XDSFXGLM (N-terminal succinyl (Succ) on Asp; N(Me)Val; C-terminal amide (-NH2)) [NKF-analog (Succ-Asp-Ser-Phe-N(Me)Val-Gly-Leu-Met-NH2)]
(B) EMHDIFVGLM-NH2 [Zebrafish Tac3a peptide, neurokinin Ba (EMHDIFVGLM-NH2)]
Query: Which shows the larger EC50, CRE-Luc to follow PKA activation, transfected COS-7 cells value: A or B ? # reply format: chosen label
Reply: B
